# TARGET ENTITY: Recombinant human factor D (Homo sapiens, UniProt P00746)
# Sequence (P00746 26-253): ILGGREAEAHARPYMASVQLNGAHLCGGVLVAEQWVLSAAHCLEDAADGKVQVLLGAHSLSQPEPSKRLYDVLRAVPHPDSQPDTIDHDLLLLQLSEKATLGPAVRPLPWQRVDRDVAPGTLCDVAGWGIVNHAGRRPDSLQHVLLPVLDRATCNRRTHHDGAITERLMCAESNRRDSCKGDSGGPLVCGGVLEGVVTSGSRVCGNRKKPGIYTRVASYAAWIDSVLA
# ASSAY PROCEDURE: Human Complement Factor D Assay: Method 1
# ASSAY SETUP: Factor D inhibition, 10 nM factor D, Z-Lys-thiobenzyl substrate, fluorescence readout
Labelling field: enter y if recorded IC50 is less than 20 nM. Enter n if it equals or exceeds that cut-off.

MOLECULE: Cc1ncc(NC(=O)[C@@H]2C[C@H]3C[C@H]3N2C(=O)Nc2cn(C(N)=O)c3ccccc23)nc1Br [Example 32]
CLASS LABEL: y

MOLECULE: NC(=O)c1nn(CC(=O)N2CC[C@H](F)[C@H]2C(=O)Nc2cccc(Br)n2)c2ccccc12 [Example 27]
CLASS LABEL: n

MOLECULE: NC(=O)c1nn(CC(=O)N2C[C@H](F)C[C@H]2C(=O)Nc2cccc(Br)n2)c2cnc(CF)cc12 [Example 24]
CLASS LABEL: y

MOLECULE: NC(=O)n1cc(NC(=O)N2[C@@H]3C[C@@H]3C[C@H]2C(=O)Nc2cncc(Br)n2)c2ccccc21 [Example 31]
CLASS LABEL: y

MOLECULE: CCc1cc2c(C(N)=O)nn(CC(=O)N3[C@@H]4C[C@@H]4C[C@H]3C(=O)Nc3cccc(C(F)(F)F)n3)c2cn1 [Example 2]
CLASS LABEL: y

MOLECULE: Cc1cc2c(C(N)=O)nn(CC(=O)N3[C@@H]4C[C@@H]4C[C@H]3C(=O)Nc3cccc(C(F)(F)F)n3)c2c(C)n1 [Example 29]
CLASS LABEL: y

MOLECULE: CC(=O)c1nn(CC(=O)N2[C@@H]3C[C@@H]3C[C@H]2C(=O)Nc2cnc(C)c(Br)n2)c2cnccc12 [Example 12]
CLASS LABEL: y

MOLECULE: NC(=O)n1cc(NC(=O)N2[C@@H]3C[C@@H]3C[C@H]2C(=O)Nc2cncc(C(F)(F)F)n2)c2ccccc21 [Example 36]
CLASS LABEL: n

MOLECULE: C[C@@]1(F)C[C@@H](C(=O)Nc2cccc(Br)n2)N(C(=O)Cn2nc(C(N)=O)c3ccccc32)C1 [Example 19]
CLASS LABEL: y

MOLECULE: CC(=O)c1nn(CC(=O)N2[C@@H]3C[C@@H]3C[C@H]2C(=O)Nc2cncc(C(F)(F)F)n2)c2cnccc12 [Example 17]
CLASS LABEL: n

MOLECULE: CC(=O)c1nn(CC(=O)N2C[C@H]3C[C@H]3[C@H]2C(=O)Nc2cccc(Br)n2)c2cnccc12 [Example 15]
CLASS LABEL: y

MOLECULE: Cc1cc2c(C(N)=O)nn(CC(=O)N3[C@@H]4C[C@@H]4C[C@H]3C(=O)Nc3cncc(C(F)(F)F)n3)c2c(C)n1 [Example 30]
CLASS LABEL: n

MOLECULE: CNC(=O)c1nn(CC(=O)N2[C@@H]3C[C@@H]3C[C@H]2C(=O)Nc2cccc(Br)n2)c2ccccc12 [Example 26]
CLASS LABEL: n

MOLECULE: NC(=O)n1cc(NC(=O)N2C[C@H](F)[C@H](F)[C@H]2C(=O)Nc2cccc(Br)n2)c2ccccc21 [Example 38]
CLASS LABEL: y
